- ASSAY_NAME: qHTS assay for small molecule agonists of retinoid X receptor alpha signaling (AID 588544)
- PROTOCOL_CONDITIONS: HEK293T RXRa-UAS-bla, beta-lactamase reporter, 18 h; 530 nm emission
Records with an inconclusive call do not appear.
QUANTITY_MEASURED: max response

IN: max response for Cc1cc(Nc2ccc(O)cc2)ccc1N ?
OUT: -10.3%

IN: max response for Cc1ccc(S(=O)(=O)Oc2ccc(N=Nc3ccc(-c4ccc(N=Nc5c(O)ccc6cc(S(=O)(=O)O)cc(S(=O)(=O)O)c56)c(C)c4)cc3C)cc2)cc1 ?
OUT: -16.1%

IN: max response for C=C(C)c1ccccc1 ?
OUT: -11%

IN: max response for CCCCCC/C(C=O)=C\c1ccccc1 ?
OUT: 3.46%

IN: max response for c1ccc2c(c1)ccc1cc3c(ccc4ccccc43)cc12 ?
OUT: -11.8%

IN: max response for O=Cc1ccc(Cl)c(Cl)c1 ?
OUT: 2.17%

---

- ASSAY_NAME: Stat Signaling Pathway (AID 446);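 also: ME-180 cervical cancer cells given 40 pM IL-6 alongside compound; SIE-controlled beta-lactamase reporter measured as 460/530 nm FRET emission ratio; % is scaled to controls: 0 for no effect and ±100 for the full control effect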
- PROTOCOL_CONDITIONS: ME-180 (cervical carcinoma) SIE beta-lactamase reporter, IL-6 stimulated, 5 h; at 17.2 µM (top of the series) unless noted
Records with an inconclusive call do not appear. Calls of active or inactive are those of the source. Calls follow the shape of the dose curve; as a rule, active = well fitted curve in either direction with a large enough effect (not every such curve was filed as active); inconclusive = small, poorly fitted or top-dose-only effect, or another doubt; inactive = flat fitted curve, though single readings scatter.
Exercise: for every item that follows, state its recorded activity, negative = inhibition.

IN: activity, negative = inhibition for CCCc1cc(NCCN2CCOCC2)n2c(nc3ccccc32)c1C#N ?
OUT: -2.52% (inactive)

IN: activity, negative = inhibition for COc1ccccc1-n1c(=O)c2c3c(sc2n2c(SC)nnc12)CCC3 ?
OUT: 14.3% (inactive)

IN: activity, negative = inhibition for CCOC(=O)c1c(C)n(C)c2ccc(OC)c(NC(=O)CN3CCCCC3)c12 ?
OUT: -0.178% (inactive)

IN: activity, negative = inhibition for C=CCNc1nc(C2(C)CC3(CC(C)(C)OC3=O)C(=O)O2)cs1 (centres undefined) ?
OUT: -18.1% (inactive)

IN: activity, negative = inhibition for COc1cc(C2C(C#N)=C(N)Oc3cc(N)ccc32)cc(OC)c1OC (centres undefined) ?
OUT: -20.2% (inactive)

IN: activity, negative = inhibition for CCCCNC(=O)N(C)c1nncnc1C(=O)NC ?
OUT: 11.5% (inactive)

IN: activity, negative = inhibition for O=C1NC(c2cccs2)Nc2ccccc21 (centres undefined) ?
OUT: -4.53% (inactive)

IN: activity, negative = inhibition for COc1ccc(CCNc2nc3c(c(=O)n(C)c(=O)n3C)n2C)cc1OC ?
OUT: -0.466% (inactive)

IN: activity, negative = inhibition for CN(C)C/C(Cl)=C(\Cl)c1ccccc1 ?
OUT: -22.6% (inactive)

IN: activity, negative = inhibition for Cc1ccc(N2C(=O)[C@@H]3[C@H](C2=O)C2CCCN2[C@@H]3C(=O)c2ccccc2)cc1 (some centres undefined) ?
OUT: -3.84% (inactive)

IN: activity, negative = inhibition for CC[C@H](c1ccccc1)c1cc(C(C)(C)C)cc(C(C)(C)C)c1O ?
OUT: 3.9% [at 7.69 µM] (inactive)

IN: activity, negative = inhibition for CC(C)Cc1nc(N2CCN(C(=O)Cc3ccccc3)CC2)c(C#N)c2c1COC(C)(C)C2 ?
OUT: -23.7% (inactive)

IN: activity, negative = inhibition for Brc1ccc(-c2cnc3n2CCCC3)cc1 ?
OUT: 16.1% (inactive)

IN: activity, negative = inhibition for Cc1nc2c(o1)CCc1ccccc1C2O (centres undefined) ?
OUT: 5.73% (inactive)

IN: activity, negative = inhibition for COc1cccc(Cn2c(NCc3ccco3)nc3c2c(=O)n(C)c(=O)n3C)c1 ?
OUT: -24.4% (inactive)

IN: activity, negative = inhibition for O=C1NC2c3ccccc3C(=O)N2c2c1cnn2-c1ccccc1 (centres undefined) ?
OUT: -7.17% (inactive)

IN: activity, negative = inhibition for CSc1nc2sc3c(c2c2nnnn12)CC(C)(C)OC3 ?
OUT: 15.4% (inactive)

IN: activity, negative = inhibition for CCCCCCn1cc(C(=O)O)c(=O)c2ccccc21 ?
OUT: 8.19% (inactive)

IN: activity, negative = inhibition for CCOC(=O)c1[nH]c2ccccc2c1N=CN(CC)CC ?
OUT: -2.38% (inactive)

IN: activity, negative = inhibition for CCN(CC)S(=O)(=O)c1ccc2c(c1)c(C(=O)O)cn2C ?
OUT: 1.11% (inactive)

IN: activity, negative = inhibition for CCOc1cccc(-c2nnc3sc(-c4cccs4)nn23)c1 ?
OUT: 5.52% (inactive)

IN: activity, negative = inhibition for CCSC1=C(C#N)C(c2cccs2)C(C(=O)OC)=C(C)N1 (centres undefined) ?
OUT: -15.6% (inactive)

IN: activity, negative = inhibition for COc1cc2[nH]c3c(=O)n(CCN(C(C)C)C(C)C)cnc3c2cc1OC ?
OUT: 6.66% (inactive)

IN: activity, negative = inhibition for O=C(OCCN1CCOCC1)c1ccc(OCCN2CCOCC2)cc1 ?
OUT: -3.54% (inactive)

---

- Tested on: CP297
- ASSAY_NAME: qHTS profiling for inhibitors of Plasmodium falciparum proliferation (AID 504749); also: nearly all actives have a fitted effect of over 60% in size
- PROTOCOL_CONDITIONS: P. falciparum in erythrocytes, SYBR Green DNA, 72 h; series mostly up to 28.7 µM
Records with an inconclusive call do not appear. The source made the active and inactive calls. Calls follow the shape of the dose curve; as a rule, active = well fitted inhibition curve with a large enough effect; inconclusive = small, poorly fitted or top-dose-only effect; inactive = flat fitted curve, though single readings scatter.
QUANTITY_MEASURED: outcome

O=C1[C@@H]2C[C@@H]3C[C@H]1C[C@@](O)(C3)C2 | inactive
CC1(C)SC2C(NC(=O)C(C(=O)O)c3ccccc3)C(=O)N2C1C(=O)O (stereo not drawn) | inactive
CCN1CCN(C(=O)NC(C(=O)NC2C(=O)N3C(C(=O)O)=C(CSc4nnnn4C)CSC23)c2ccc(O)cc2)C(=O)C1=O (stereo not drawn) | inactive

---

- Test system: CP237
- ASSAY_NAME: qHTS profiling for inhibitors of Plasmodium falciparum proliferation (AID 504749); also: nearly all actives have a fitted effect of over 60% in size
- PROTOCOL_CONDITIONS: P. falciparum in erythrocytes, SYBR Green DNA, 72 h; series mostly up to 28.7 µM
- Description: NIH National Institute of Allergy and Infectious Diseases [NIAID] NIH Chemical Genomics Center [NCGC] […] Because mature erythrocytes lack DNA, only Plasmodium-derived DNA is detected. NCGC Assay Protocol Summary: The SYBR Green viability assay was adapted from a method described previously (Plouffe et al., 2008). […] The following morning, fluorescence intensity at 485(14) nm excitation and 535(25) nm emission wavelengths was measured on an EnVision (Perkin Elmer) plate reader. […]
Inconclusive results are not listed. Active and inactive are the calls of the source. Calls follow the shape of the dose curve; as a rule, active = well fitted inhibition curve with a large enough effect; inconclusive = small, poorly fitted or top-dose-only effect; inactive = flat fitted curve, though single readings scatter.
Bench note: report the call from T = active, F = inactive

IN: Called result for OC[C@@H](O)C(O[C@@H]1O[C@@H](CO)[C@H](O)[C@H](O)[C@H]1O)[C@H](O)[C@@H](O)CO (stereo partly drawn)
OUT: F

IN: Called result for CO/N=C(/C(=O)N[C@@H]1C(=O)N2C(C(=O)O)=C(CSc3cnns3)CS[C@H]12)c1csc(N)n1
OUT: F

IN: Called result for CC[C@@H](C)C(N)C(=O)O (stereo partly drawn)
OUT: F

IN: Called result for C=C1N[C@]2(C(=O)COC(C)=O)[C@@H](C[C@H]3[C@@H]4CCC5=CC(=O)C=C[C@]5(C)[C@H]4[C@@H](O)C[C@@]32C)O1
OUT: F

IN: Called result for CCC1OC(=O)C[C@@H](O)[C@H](C)[C@@H](OC2OC(C)CC(N(C)C)C2O)[C@@H](CC=O)C[C@@H](C)C(=O)/C=C/[C@]2(C)OC2C1C (stereo partly drawn)
OUT: T

IN: Called result for O=C(O)Cc1sc(-c2ccc(Cl)cc2)nc1-c1ccccc1
OUT: F

IN: Called result for C[C@H]1[C@@H](OC(=O)CCC(=O)O)OC2OC3(C)CC[C@H]4[C@H](C)CC[C@@H]1[C@@]24OO3 (stereo partly drawn)
OUT: T

IN: Called result for OC[C@@H]1O[C@](CO)(O[C@H]2O[C@H](CO)[C@@H](O)[C@H](O)[C@H]2O)[C@H](O)[C@H]1O
OUT: F

IN: Called result for CC1(C)SC2C(NC(=O)C(C(=O)O)c3ccccc3)C(=O)N2C1C(=O)O (stereo not drawn)
OUT: F

IN: Called result for C[C@H](CN1c2ccccc2Sc2cccnc21)N(C)C
OUT: T

IN: Called result for CO[C@H]1C[C@@H]2CC[C@@H](C)[C@@](O)(O2)C(=O)C(=O)N2CCCC[C@H]2C(=O)O[C@H]([C@H](C)C[C@@H]2CC[C@@H](O)[C@H](OC)C2)CC(=O)[C@H](C)/C=C(\C)[C@@H](O)[C@@H](OC)C(=O)[C@H](C)C[C@H](C)/C=C/C=C/C=C/1C
OUT: T

IN: Called result for O=C1[C@@H]2C[C@@H]3C[C@H]1C[C@@](O)(C3)C2
OUT: F

IN: Called result for Cc1ccccc1N1C(=O)c2cc(N)ccc2N/C1=C\F
OUT: F

IN: Called result for C[C@@H]1C(SC2Cn3cnc[n+]3C2)=C(C(=O)[O-])N2C(=O)[C@H]([C@@H](C)O)[C@@H]12 (stereo partly drawn)
OUT: F

IN: Called result for COc1cccc2c1C(=O)c1c(O)c3c(c(O)c1C2=O)C[C@@](O)(C(=O)CO)C[C@@H]3OC1CC(N)C(O)C(C)O1 (stereo partly drawn)
OUT: T

IN: Called result for CCCCCCCCCCCC(=O)OCC(O)C1OCC(O)C1O (stereo not drawn)
OUT: F

IN: Called result for CC(C)(C)NC[C@H](O)CSc1nc(-c2ccc(C(N)=O)s2)cs1
OUT: F

IN: Called result for CC(C)(C)C(=O)OCC(=O)C1CCC2C3CCC4=CC(=O)CCC4(C)C3CCC12C (stereo not drawn)
OUT: F
